# System: HepG2-DR cells
# test method notes: Cell cycle distribution by flow cytometry (doxorubicin-induced G2/M arrest), HepG2-DR
# Assay type: cell-based, human
# measurement conditions: HepG2-DR, 1 μM doxorubicin + 2 μM test compound, 48 h
Cell cycle distribution, SubG1 listing for selected compounds.
readout name: Cell cycle distribution, SubG1 (%)

- compound: "COc1ccc(/C=C/C(=O)O[C@@H]2c3c(ccc4ccc(=O)oc34)OC(C)(C)[C@@H]2OC(=O)/C=C/c2ccc(OC)c(OC)c2)cc1OC (racemic) [cis-DMDCK]"
  measured on: "HepG2-DR cells"
  value observed: 6.40
- compound: "COc1ccc(C(=O)O[C@@H]2c3c(ccc4ccc(=O)oc34)OC(C)(C)[C@@H]2OC(=O)c2ccc(OC)c(OC)c2)cc1OC (racemic) [cis-DMDBK]"
  measured on: "HepG2-DR cells"
  value observed: 7.13
- compound: "COc1ccc(C(=O)O[C@@H]2[C@@H](OC(=O)c3ccc(OC)c(OC)c3)c3c(ccc4ccc(=O)oc34)OC2(C)C)cc1OC (racemic) [trans-DMDBK]"
  measured on: "HepG2-DR cells"
  value observed: 5.30
- compound: "COc1ccc(/C=C/C(=O)O[C@@H]2[C@@H](OC(=O)/C=C/c3ccc(OC)c(OC)c3)c3c(ccc4ccc(=O)oc34)OC2(C)C)cc1OC (racemic) [trans-DMDCK]"
  measured on: "HepG2-DR cells"
  value observed: 6.55
